- Subject Of Test: T1, IL-18 receptors on HEK-Blue IL-18 reporter cells (InvivoGen) (UniProt Q13478 19-541; O95256 20-599)
- T1 sequence (looked up) 1: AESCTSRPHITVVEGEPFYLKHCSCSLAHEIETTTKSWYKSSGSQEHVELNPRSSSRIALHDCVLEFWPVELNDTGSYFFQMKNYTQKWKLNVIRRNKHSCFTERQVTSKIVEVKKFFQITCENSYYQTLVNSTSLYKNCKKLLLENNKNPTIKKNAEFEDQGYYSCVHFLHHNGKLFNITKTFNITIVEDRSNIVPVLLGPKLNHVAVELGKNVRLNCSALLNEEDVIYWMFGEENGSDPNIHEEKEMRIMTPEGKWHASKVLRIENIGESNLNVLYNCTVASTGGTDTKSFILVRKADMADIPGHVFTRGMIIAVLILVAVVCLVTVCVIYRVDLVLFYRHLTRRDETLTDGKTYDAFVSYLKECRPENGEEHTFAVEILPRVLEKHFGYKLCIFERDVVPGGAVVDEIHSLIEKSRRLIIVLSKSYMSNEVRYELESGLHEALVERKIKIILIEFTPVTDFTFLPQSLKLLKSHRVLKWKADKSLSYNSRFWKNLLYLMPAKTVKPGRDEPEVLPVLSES
- T1 sequence (looked up) 2: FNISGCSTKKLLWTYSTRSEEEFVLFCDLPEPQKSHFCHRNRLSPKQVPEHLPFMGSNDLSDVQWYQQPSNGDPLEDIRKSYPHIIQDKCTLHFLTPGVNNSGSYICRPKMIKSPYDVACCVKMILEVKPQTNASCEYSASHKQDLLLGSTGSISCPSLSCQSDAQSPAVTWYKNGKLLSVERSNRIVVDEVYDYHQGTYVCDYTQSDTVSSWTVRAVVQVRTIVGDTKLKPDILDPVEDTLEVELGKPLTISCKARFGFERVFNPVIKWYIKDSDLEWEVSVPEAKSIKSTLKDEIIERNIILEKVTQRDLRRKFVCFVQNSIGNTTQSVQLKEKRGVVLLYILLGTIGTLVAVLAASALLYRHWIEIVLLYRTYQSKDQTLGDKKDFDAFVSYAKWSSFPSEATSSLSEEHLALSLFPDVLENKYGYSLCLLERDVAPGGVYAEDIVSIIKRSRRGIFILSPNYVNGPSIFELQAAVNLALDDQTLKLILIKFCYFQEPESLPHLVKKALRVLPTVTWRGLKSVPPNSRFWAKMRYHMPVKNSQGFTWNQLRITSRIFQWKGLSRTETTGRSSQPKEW
- Assay Explanation: cell-based or functional assay
Experimental Readout: HEK-Blue EC50 pM, NO BP (300 nM BP run)

IL-18 variant G3V, M60K, D157E (ligand) YFVKLESKLSVIRNLNDQVLFIDQGNRPLFEDMTDSDMRDNAPRTIFIISMYKDSQPRGKAVTISVKSEKISTLSSENKIISFKEMNPPDNIKDTKSDIIFFQRSVPGHDNKMQFESSSYEGYFLASEKERDLFKLILKKEDELGDRSIMFTVQNEE :: 0.16 pM

Consider now this further binder.
Lab book: HEK-Blue EC50 pM, NO BP (300 nM BP run) of IL-18 variant M60K, D157E (ligand) YFGKLESKLSVIRNLNDQVLFIDQGNRPLFEDMTDSDMRDNAPRTIFIISMYKDSQPRGKAVTISVKSEKISTLSSENKIISFKEMNPPDNIKDTKSDIIFFQRSVPGHDNKMQFESSSYEGYFLASEKERDLFKLILKKEDELGDRSIMFTVQNEE noted as 1.67 pM

Taken from patent US20240182536A1.
